The measured values listed here are drawn from ChEMBL document CHEMBL4689842.

System: Fibroblast
Assay: Incucyte cell viability with human fibroblast; also: filed as whole numbers so only -1 and 0 and 1 occur
Assay type: toxicity, cell-based
Details: 12 h, 10 µM, compound concentration 10 uM, replicate number 2, timepoint 12 hours
RECORDED_METRIC: Growth Rate
Please give only the number in your answer, with no unit.

- COMPOUND: "CCOC(=O)c1cc2cc(-c3cc(C(=O)NCc4ccc(C(=O)O)cc4)nn3C)ccc2[nH]1"
  RECORDED_NUMBER: 0

Proceeding to the next compound to report its Growth Rate.
Query block: Fill in: Growth Rate of `Cc1cc(-n2nc(Cc3cc(F)cc(C(F)(F)F)c3)nc2C)ccc1C(N)=O` is ___
Result block: 0
